# Tested on: NCI-H460
# ASSAY SUMMARY: relative viability (nuclei count vs DMSO), 5 days (fraction); higher = more cells survive
# RUN CONDITIONS: first compound 0.06325 µM
READOUT NAME: relative viability
Reply briefly: the number, and no unit.

CCNC(=O)c1noc(-c2cc(C(C)C)c(O)cc2O)c1-c1ccc(CN2CCOCC2)cc1 [Luminespib] + CC(C)C[C@H](NC(=O)[C@H](Cc1ccccc1)NC(=O)c1cnccn1)B(O)O [Bortezomib] (partner 0.002 µM); 0.011
CCNC(=O)c1noc(-c2cc(C(C)C)c(O)cc2O)c1-c1ccc(CN2CCOCC2)cc1 [Luminespib] + CC(=O)Nc1cccc(-n2c(=O)n(C3CC3)c(=O)c3c(Nc4ccc(I)cc4F)n(C)c(=O)c(C)c32)c1 [Trametinib] (partner 0.02 µM); 0.0128
CCNC(=O)c1noc(-c2cc(C(C)C)c(O)cc2O)c1-c1ccc(CN2CCOCC2)cc1 [Luminespib] + CC(=O)c1c(C)c2cnc(Nc3ccc(N4CCNCC4)cn3)nc2n(C2CCCC2)c1=O [Palbociclib] (partner 0.5 µM); 0.0096
CCNC(=O)c1noc(-c2cc(C(C)C)c(O)cc2O)c1-c1ccc(CN2CCOCC2)cc1 [Luminespib] + COc1cccc2cc(-c3nc([C@H]4CC[C@H](C(=O)O)CC4)n4ncnc(N)c34)[nH]c12 [OSI-027] (partner 0.5 µM); 0.0153
CCNC(=O)c1noc(-c2cc(C(C)C)c(O)cc2O)c1-c1ccc(CN2CCOCC2)cc1 [Luminespib] + NC(=O)Nc1cc(-c2cccc(F)c2)sc1C(=O)N[C@H]1CCCNC1 [AZD7762] (partner 0.2 µM); 0.0326

Fill in the blank: the reported relative viability of CCNC(=O)c1noc(-c2cc(C(C)C)c(O)cc2O)c1-c1ccc(CN2CCOCC2)cc1 [Luminespib] + O=C(c1cc(Cc2n[nH]c(=O)c3ccccc23)ccc1F)N1CCN(C(=O)C2CC2)CC1 [Olaparib] (partner 8 µM) is ____.
0.0514

----------
# Test system: NCI-H1755
# ASSAY SUMMARY: relative viability (nuclei count vs DMSO), 5 days (fraction); higher = more cells survive
# RUN CONDITIONS: first compound 0.6325 µM
relative viability values for the compounds below.

Fill in the blank: the reported relative viability of CN1CCN(CCOc2cc(OC3CCOCC3)c3c(Nc4c(Cl)ccc5c4OCO5)ncnc3c2)CC1 [Saracatinib] + CC1(C)CCC(c2ccc(Cl)cc2)=C(CN2CCN(c3ccc(C(=O)NS(=O)(=O)c4ccc(N[C@H](CCN5CCOCC5)CSc5ccccc5)c(S(=O)(=O)C(F)(F)F)c4)cc3)CC2)C1 [Navitoclax] (partner 0.5 µM) is ____.
0.874

Similarly, Cc1csc(=NC2CCCCC2)n1/N=C/c1ccc(O)c(O)c1O [MIM1] + N=C(N)NC(=N)NCCc1ccccc1 [Phenformin] (partner 250 µM) ?
0.597

Similarly, Cc1csc(=NC2CCCCC2)n1/N=C/c1ccc(O)c(O)c1O [MIM1] + COc1cccc2cc(-c3nc([C@H]4CC[C@H](C(=O)O)CC4)n4ncnc(N)c34)[nH]c12 [OSI-027] (partner 0.5 µM) ?
0.69

Similarly, CN1CCN(CCOc2cc(OC3CCOCC3)c3c(Nc4c(Cl)ccc5c4OCO5)ncnc3c2)CC1 [Saracatinib] + COc1cc2c(Oc3ccc(NC(=O)C4(C(=O)Nc5ccc(F)cc5)CC4)cc3F)ccnc2cc1OCCCN1CCOCC1 [Foretinib] (partner 0.25 µM) ?
0.821

Similarly, CN1CCN(CCOc2cc(OC3CCOCC3)c3c(Nc4c(Cl)ccc5c4OCO5)ncnc3c2)CC1 [Saracatinib] + CC(C)C[C@H](NC(=O)[C@H](Cc1ccccc1)NC(=O)c1cnccn1)B(O)O [Bortezomib] (partner 0.002 µM) ?
1.08

----------
# Tested on: NCI-H838
# ASSAY SUMMARY: relative viability (nuclei count vs DMSO), 5 days (fraction); higher = more cells survive
# RUN CONDITIONS: first compound 0.6325 µM
Flag rule - relative viability less than 0.9 flags Satisfied; the remaining entries get Not satisfied.

Before answering, review these 7 worked examples.
Cc1csc(=NC2CCCCC2)n1/N=C/c1ccc(O)c(O)c1O [MIM1] + N=C(N)NC(=N)NCCc1ccccc1 [Phenformin] (partner 250 µM); Satisfied
CN1CCN(CCOc2cc(OC3CCOCC3)c3c(Nc4c(Cl)ccc5c4OCO5)ncnc3c2)CC1 [Saracatinib] + CS(=O)(=O)N1CCN(Cc2cc3nc(-c4cccc5[nH]ncc45)nc(N4CCOCC4)c3s2)CC1 [Pictilisib] (partner 1 µM); Satisfied
Cc1csc(=NC2CCCCC2)n1/N=C/c1ccc(O)c(O)c1O [MIM1] + NC(=O)Nc1cc(-c2cccc(F)c2)sc1C(=O)N[C@H]1CCCNC1 [AZD7762] (partner 0.2 µM); Not satisfied
Cc1csc(=NC2CCCCC2)n1/N=C/c1ccc(O)c(O)c1O [MIM1] + Cc1nc(NC(=O)N2CCC[C@H]2C(N)=O)sc1-c1ccnc(C(C)(C)C(F)(F)F)c1 [Alpelisib] (partner 2 µM); Not satisfied
Cc1csc(=NC2CCCCC2)n1/N=C/c1ccc(O)c(O)c1O [MIM1] + C[C@]1(O)C[C@@H](c2nc(-c3ccc4ccc(-c5ccccc5)nc4c3)c3c(N)nccn32)C1 [Linsitinib] (partner 1 µM); Not satisfied
CN1CCN(CCOc2cc(OC3CCOCC3)c3c(Nc4c(Cl)ccc5c4OCO5)ncnc3c2)CC1 [Saracatinib] + CS(=O)(=O)CCNCc1ccc(-c2ccc3ncnc(Nc4ccc(OCc5cccc(F)c5)c(Cl)c4)c3c2)o1 [Lapatinib] (partner 2 µM); Satisfied
CN1CCN(CCOc2cc(OC3CCOCC3)c3c(Nc4c(Cl)ccc5c4OCO5)ncnc3c2)CC1 [Saracatinib] + CC1(C)CCC(c2ccc(Cl)cc2)=C(CN2CCN(c3ccc(C(=O)NS(=O)(=O)c4ccc(N[C@H](CCN5CCOCC5)CSc5ccccc5)c(S(=O)(=O)C(F)(F)F)c4)cc3)CC2)C1 [Navitoclax] (partner 0.5 µM); Not satisfied

is_below(relative viability, 0.9) for Cc1csc(=NC2CCCCC2)n1/N=C/c1ccc(O)c(O)c1O [MIM1] + CC(=O)c1c(C)c2cnc(Nc3ccc(N4CCNCC4)cn3)nc2n(C2CCCC2)c1=O [Palbociclib] (partner 0.5 µM) ?
Satisfied

----------
# Test system: HARA
# ASSAY SUMMARY: relative viability (nuclei count vs DMSO), 5 days (fraction); higher = more cells survive
# RUN CONDITIONS: first compound 0.6325 µM
READOUT NAME: relative viability
Reply briefly: the number, and no unit.

Here is how some compounds turned out for relative viability.
Cc1csc(=NC2CCCCC2)n1/N=C/c1ccc(O)c(O)c1O [MIM1] + O=C(c1cc(Cc2n[nH]c(=O)c3ccccc23)ccc1F)N1CCN(C(=O)C2CC2)CC1 [Olaparib] (partner 8 µM); 1.06
CN1CCN(CCOc2cc(OC3CCOCC3)c3c(Nc4c(Cl)ccc5c4OCO5)ncnc3c2)CC1 [Saracatinib] + NC(=O)Nc1cc(-c2cccc(F)c2)sc1C(=O)N[C@H]1CCCNC1 [AZD7762] (partner 0.2 µM); 0.247
CN1CCN(CCOc2cc(OC3CCOCC3)c3c(Nc4c(Cl)ccc5c4OCO5)ncnc3c2)CC1 [Saracatinib] + N=C(N)NC(=N)NCCc1ccccc1 [Phenformin] (partner 250 µM); 0.496

Fill in the blank: the reported relative viability of CN1CCN(CCOc2cc(OC3CCOCC3)c3c(Nc4c(Cl)ccc5c4OCO5)ncnc3c2)CC1 [Saracatinib] + Cc1nc(Nc2ncc(C(=O)Nc3c(C)cccc3Cl)s2)cc(N2CCN(CCO)CC2)n1 [Dasatinib] (partner 0.075 µM) is ____.
0.272

Similarly, Cc1csc(=NC2CCCCC2)n1/N=C/c1ccc(O)c(O)c1O [MIM1] + CC(=O)c1c(C)c2cnc(Nc3ccc(N4CCNCC4)cn3)nc2n(C2CCCC2)c1=O [Palbociclib] (partner 0.5 µM) ?
0.302

----------
# Test system: A549
# ASSAY SUMMARY: relative viability (nuclei count vs DMSO), 5 days (fraction); higher = more cells survive
# RUN CONDITIONS: first compound 0.03162 µM
READOUT NAME: relative viability
Reply briefly: the number, and no unit.

Here is how some compounds turned out for relative viability.
Cc1cn(-c2cc(NC(=O)c3ccc(C)c(Nc4nccc(-c5cccnc5)n4)c3)cc(C(F)(F)F)c2)cn1 [Nilotinib] + C[C@]1(O)C[C@@H](c2nc(-c3ccc4ccc(-c5ccccc5)nc4c3)c3c(N)nccn32)C1 [Linsitinib] (partner 1 µM); 0.535
Cc1cn(-c2cc(NC(=O)c3ccc(C)c(Nc4nccc(-c5cccnc5)n4)c3)cc(C(F)(F)F)c2)cn1 [Nilotinib] + C[C@@H](Oc1cc(-c2cnn(C3CCNCC3)c2)cnc1N)c1c(Cl)ccc(F)c1Cl [Crizotinib] (partner 1 µM); 0.501
Cc1cn(-c2cc(NC(=O)c3ccc(C)c(Nc4nccc(-c5cccnc5)n4)c3)cc(C(F)(F)F)c2)cn1 [Nilotinib] + Nc1ncn([C@H]2C[C@H](O)[C@@H](CO)O2)c(=O)n1 [Decitabine] (partner 2 µM); 0.198

State its relative viability on A549: Cc1cn(-c2cc(NC(=O)c3ccc(C)c(Nc4nccc(-c5cccnc5)n4)c3)cc(C(F)(F)F)c2)cn1 [Nilotinib] + CS(=O)(=O)N1CCN(Cc2cc3nc(-c4cccc5[nH]ncc45)nc(N4CCOCC4)c3s2)CC1 [Pictilisib] (partner 1 µM)
0.368

These entries and their values trace back to the supplement of paper PMC10307832.
